Hello, the source for this data is paper PMC11926245, in case you need it.

# experimental system: TH:DNAJC12 complex (Homo sapiens, UniProt P07101)
# Construct: both full-length wild-type, each expressed in E. coli as HisMBP fusion, tags cut with TEV protease; with DnaJ homolog subfamily C member 12
# Sequence (P07101 1-497 isoform P07101-3): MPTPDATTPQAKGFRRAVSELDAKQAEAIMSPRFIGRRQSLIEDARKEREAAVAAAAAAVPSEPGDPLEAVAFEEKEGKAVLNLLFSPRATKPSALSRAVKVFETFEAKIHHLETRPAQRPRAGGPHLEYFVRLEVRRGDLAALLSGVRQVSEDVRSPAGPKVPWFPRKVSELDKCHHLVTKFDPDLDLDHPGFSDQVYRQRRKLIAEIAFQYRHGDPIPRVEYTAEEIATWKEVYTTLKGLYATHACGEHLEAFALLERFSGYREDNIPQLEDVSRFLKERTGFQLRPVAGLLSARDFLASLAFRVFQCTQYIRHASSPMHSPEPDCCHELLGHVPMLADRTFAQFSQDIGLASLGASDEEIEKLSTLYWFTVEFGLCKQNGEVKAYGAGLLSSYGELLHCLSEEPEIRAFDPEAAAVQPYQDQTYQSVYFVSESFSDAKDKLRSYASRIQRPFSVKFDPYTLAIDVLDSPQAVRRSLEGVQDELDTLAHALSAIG
# Sequence (Q9UKB3 whole entry partner, the tested form may be a part): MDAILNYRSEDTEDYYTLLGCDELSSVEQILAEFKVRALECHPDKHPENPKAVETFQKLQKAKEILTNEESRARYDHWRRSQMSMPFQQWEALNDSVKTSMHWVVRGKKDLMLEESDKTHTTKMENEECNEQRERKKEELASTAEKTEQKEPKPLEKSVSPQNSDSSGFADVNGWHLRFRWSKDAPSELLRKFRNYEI
# experiment description: TH activity, L-Dopa quantified by HPLC with fluorescence detection
measurement label: pIC50
Answer as the number alone; pIC50 is minus log10 of concentration in mol/L.

Enquiry: Form field: reported pIC50 of NCCc1ccc(O)c(O)c1
Return: 6.45

* * *

# experimental system: TH (TH-WT, hTH1) (Homo sapiens)
# Construct: full-length wild-type (C-terminal residue 497), expressed in E. coli as HisMBP fusion from pETMBP1a/hTH1, tags cut with TEV protease
# Sequence (P07101 1-497 isoform P07101-3): as the sequence (P07101 1-497 isoform P07101-3) above
# experiment description: TH activity, L-Dopa quantified by HPLC with fluorescence detection
measurement label: pIC50
The read-out pIC50 is expressed as -log10 of concentration in moles per litre.

Enquiry: Fill in the blank: the reported pIC50 of NCCc1ccc(O)c(O)c1 is ____.
Return: 6.44
